System: CRL-7250
Experiment: Cytotoxic Profiling of Annotated Libraries Using Quantitative High-Throughput Screening (AID 1296008); note: nearly all actives have a fitted effect of over 60% in size
Conditions: Five cell lines viability, CellTiter-Glo ATP luminescence, 48-72 h
Results filed as inconclusive are left out. The source made the active and inactive calls. Calls come from the whole dose curve; as a rule, active = well fitted inhibition curve with a large enough effect; inconclusive = small, poorly fitted or top-dose-only effect; inactive = flat fitted curve, though single readings scatter.
The reply should be one of these categories: label 1 (active), label 0 (inactive)

stdin: Give the logged outcome of this assay for the following compound: CC[C@H](CO)Nc1nc(NCc2ccc(-c3ccccn3)cc2)c2ncn(C(C)C)c2n1
stdout: label 1

stdin: Per the records of this test, what outcome belongs to C=C1CCC2C(C)(C(=O)OC)CCCC2(C)C1CCC(C)CC(=O)O (centres undefined) ?
stdout: label 0

stdin: # fetch the recorded call for C[C@@H]1O[C@@H](O[C@H]2[C@H](OC(=O)[C@]34CCC(C)(C)C[C@H]3C3=CCC5[C@@]6(C)C[C@H](O)[C@H](O[C@@H]7O[C@H](CO)[C@@H](O)[C@H](O)[C@H]7O)[C@@](C)(CO)C6[C@H](O)C[C@@]5(C)[C@]3(C)C[C@H]4O)OC[C@H](O)[C@@H]2O)[C@H](O)[C@H](O)[C@H]1O[C@@H]1OC[C@@H](O)[C@H](O[C@H]2OC[C@](O)(CO)[C@H]2O)[C@H]1O (some centres undefined) here
stdout: label 0

stdin: Field: outcome | Entry: COc1c2c(c(C)c3c1C(=O)OC3)OC1(C)CC(O)C(C(C)(C)O)C(C)(CCC(=O)O)C1C2 (centres undefined)
stdout: label 0

----------
Experiment: Primary qHTS for inhibitors of nuclear receptor binding SET domain protein 2 (NSD2) in an RCH-ACV wild type WT cells (2C) (AID 1645877); note: nearly all actives have a fitted effect of over 70% in size; note: potency is the fitted concentration of half-maximal effect
Settings: RCH-ACV (leukaemia line) NSD2 WT (2C) viability, CellTiter-Glo, 72 h; series mostly up to 44.9 µM
Results filed as inconclusive are left out. Calls of active or inactive are those of the source. The call rests on the fitted dose curve; in most records, active means well fitted inhibition curve with a large enough effect; inconclusive means small, poorly fitted or top-dose-only effect; inactive means no such curve, though single readings can be large or run the other way.
Value Kind: Potency

1) CC12CCC(OC3OC(CO)C(O)C(OC4OC(CO)C(O)C(O)C4O)C3O)CC1CCC1C2CCC2(C)/C(=C3/COC(=O)C3)CCC12O (stereo not given) = inactive
2) CC1=CC(=O)CC(C)(CO)C1(O)/C=C/C(C)O[C@@H]1O[C@H](CO)[C@@H](O)[C@H](O)[C@H]1O (stereo not given in full) = inactive
3) CCCOc1ccc(-c2nc(OC)c3ccccc3n2)cc1 = inactive
4) COc1cc(O)cc(C)c1C(=O)O[C@H]1[C@@H](OC(C)=O)[C@H](n2ccc(=O)[nH]c2=O)O[C@@H]1CO = inactive
5) COC(C(=O)N1Cc2[nH]nc(NC(=O)c3ccc(N4CCN(C)CC4)cc3)c2C1)c1ccccc1 (stereo not given) = 45.9 nM (active)

stdin: Report Potency for CC(C)(C)OC(=O)N1CCC(OCc2nc(-c3ccncc3)no2)CC1
stdout: inactive

stdin: // Input: CCCNc1ccc2ncc(-c3ccc4[nH]ncc4c3)n2n1 . Output its Potency only.
stdout: 91.6 nM (active)

stdin: For CC(=O)N1CCN(C(=O)Cc2ccc(Nc3ncc(F)c(Nc4ccc(C(=O)Nc5ccccc5Cl)cc4)n3)cc2)CC1 , write its Potency.
stdout: 2050 nM (active)

stdin: // fetch Potency given entry CCc1c(C)nc2c(-c3cnn(-c4cc(CO)ccn4)c3)c[nH]n2c1=O
stdout: inactive

stdin: Fill in reported Potency for this entry: COc1c2c(c(C)c3c1C(=O)OC3)OC1(C)CC(O)C34OC(OC)(OC3(C)C)C(O)CC4(C)C1C2 (stereo not given)
stdout: inactive

Recorded values, source PubChem BioAssay (NCATS).
